# ASSAY SUMMARY: qHTS Assay for Lipid Storage Modulators in Drosophila S3 Cells
# TEST CONDITIONS: BODIPY lipid droplet fluorescence, 18-24 h, cells fed with added oleic acid; series mostly up to 46.1 µM
The campaign covered roughly 320,000 compounds. About 2,100 (0.66%) were called active. Inconclusive results (about 53%) are left out. Calls come from the whole dose curve; as a rule, active = well fitted inhibition curve with a large enough effect in the signal ratio, with a control signal flat (not every such curve was filed as active); inconclusive = small, poorly fitted or top-dose-only effect, or effect the other way, or a change in a side signal; inactive = flat fitted curve, though single readings scatter; the % refers to the signal ratio. Shown is part of a subset that was picked to be rich in actives.
API: response.call in 1.0 (active), 0.0 (inactive)

- MOLECULE: "Cc1nc2ccccc2c(N)c1C(=O)/C=C/c1ccccc1"
  CLASS ASSIGNMENT: 1.0
- MOLECULE: "Cn1nccc1C(=O)NC1CC(C)(C)Cc2c1cnn2-c1ccc(F)cc1 (centres undefined)"
  CLASS ASSIGNMENT: 0.0
- MOLECULE: "CC(C)Nc1nc(NC(C)C)nc(Nn2cnnc2)n1"
  CLASS ASSIGNMENT: 0.0

What did this assay record as the result for Cc1ccc2c(c1)S/C(=C/c1ccc[n+](CCO)c1)N2C ?
0.0

What did this assay record as the result for CCOC(=O)c1c(C)nc2ccccc2c1C ?
0.0

###

# ASSAY SUMMARY: qHTS Assay for Lipid Storage Modulators in Drosophila S3 Cells
# TEST CONDITIONS: BODIPY lipid droplet fluorescence, 18-24 h, cells fed with added oleic acid; series mostly up to 46.1 µM
Out of some 320,000 compounds screened, about 2,100 (0.66%) were called active. Roughly 53% stayed inconclusive and do not appear here. Calls follow the shape of the dose curve; as a rule, active = well fitted inhibition curve with a large enough effect in the signal ratio, with a control signal flat (not every such curve was filed as active); inconclusive = small, poorly fitted or top-dose-only effect, or effect the other way, or a change in a side signal; inactive = flat fitted curve, though single readings scatter; the % refers to the signal ratio. What follows is part of a selection rich in actives, with near analogues and random picks from the rest.
API: response.call in t for active, f for inactive

- COMPOUND: "COc1ccc([N+](=O)[O-])cc1NC(=O)c1cccnc1"
  CLASS ASSIGNMENT: "f"
- COMPOUND: "Cc1ccc(NS(=O)(=O)c2ccc(C(=O)OCC(=O)Nc3cc(C)on3)cc2)cc1"
  CLASS ASSIGNMENT: "f"
- COMPOUND: "Cc1ccn2c(C(=O)NNC(=O)Nc3ccc(Cl)cc3)c(C)nc2c1"
  CLASS ASSIGNMENT: "f"
- COMPOUND: "Cc1cc(Cl)c2oc(C(=O)N(C)CC3CCOCC3)c(C)c2c1"
  CLASS ASSIGNMENT: "f"
- COMPOUND: "Oc1ccccc1C1=NN(c2ccccc2)C(c2ccccc2)C1 (stereo unspecified)"
  CLASS ASSIGNMENT: "t"

What did this assay record as the result for CC1(c2ccccc2)CC(c2ccccc2)=Nc2ccccc2N1 (stereo unspecified) ?
f

What did this assay record as the result for CC(=O)N1CCOc2ccc(S(=O)(=O)N3CCC(C(=O)NCc4ccc(C)cc4)CC3)cc21 ?
f

What did this assay record as the result for CCCCCN(C(=O)CN1CCC(Cc2ccccc2)CC1)c1c(N)n(CCCC)c(=O)[nH]c1=O ?
f

What did this assay record as the result for COc1ccc(CNC(=O)CSc2n[nH]c(N)n2)cc1 ?
f

What did this assay record as the result for CCN1C(=O)/C(=C2\SC(N3CCCCC3)=NC2=O)c2ccccc21 ?
f

What did this assay record as the result for CCOc1ccc(NC(=S)N2CCC(c3nc4ccccc4[nH]3)CC2)cc1 ?
f

What did this assay record as the result for CC(C)CC(c1nnnn1C1CCCC1)N1CCN(C(=O)c2ccco2)CC1 (stereo unspecified) ?
f

What did this assay record as the result for Cc1ccc(C(=O)NC(C(=O)OCc2cn3cc(Cl)ccc3n2)C(C)C)cc1 (stereo unspecified) ?
t

What did this assay record as the result for COc1ccccc1N1CCN(CC(O)COc2ccc3c(c2)CCC3)CC1 (stereo unspecified) ?
f

What did this assay record as the result for Cc1ccc(C(=O)N[C@H](C(=O)OCc2cc(=O)n3c(n2)sc2ccccc23)C(C)C)cc1 ?
f

What did this assay record as the result for COc1ccc(CC(=O)Nc2ccccc2C(=O)NCCc2ccccc2)cc1 ?
f

What did this assay record as the result for C#CCNC(=O)C1=C[C@@H](c2coc3ccccc3c2=O)C[C@@H](OCCCCO)O1 ?
f

What did this assay record as the result for Cc1cccc(-c2noc(CN(C(=O)C34CC5CC(CC(C5)C3)C4)C(C)C)n2)c1 ?
f

What did this assay record as the result for COc1cccc(NC(=S)N2CCN(C(c3ccccc3)c3ccccc3)CC2)c1 ?
f

What did this assay record as the result for Cc1cc(Cl)c2oc(C(=O)N(C)CCCCN3CCOCC3)c(C)c2c1 ?
t

What did this assay record as the result for Cc1c(NC(=O)C2(c3ccccc3)CCOCC2)c(=O)n(-c2ccccc2)n1C ?
f

###

# reported cell number change; entries follow
# ASSAY SUMMARY: qHTS Assay for Lipid Storage Modulators in Drosophila S3 Cells;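 for cell number change: cells counted by Cell Tracker Red CMTPX staining in the red channel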
# TEST CONDITIONS: BODIPY lipid droplet fluorescence, 18-24 h, cells fed with added oleic acid; measured here: cell count max response
# Excerpt: NIH Molecular Libraries Probe Production Centers Network [MLPCN] NIH Chemical Genomics Center [NCGC] […] Triacsin C (Sigma-Aldrich T-4540), an inhibitor of long-chain fatty acyl CoA synthetase that blocks synthesis of triglycerides, was used as a positive control for lipid under-storage. […] Fluorescence was detected by excitation of the fluorophores with a 488-nm laser on an Acumen Explorer (TTP Lab Tech). […] Cells were detected using channel 3 (575-640 nm) with 5-um width and 100-um depth filters. […]
Screen size: about 320,000 compounds; about 2,100 (0.66%) were called active. Another 53% or so got no clear call; they are omitted. Only a selection was taken, and actives are over-represented in it overall.
I only need the number, in %, no unit after it.

Check out these entries, answers already filled in.
- COMPOUND: "COc1ccc(NC(=O)CN(C)C(=O)c2cn(-c3ccccc3)nc2-c2ccc(F)cc2)cc1"
  UNIT ANNOTATION: "%"
  cell number change: -10.6
- COMPOUND: "Cc1cc(-c2ccc(S(=O)(=O)N3CCN(c4ccc(F)cc4)CC3)s2)on1"
  UNIT ANNOTATION: "%"
  cell number change: 5.9
- COMPOUND: "CCCCC1CCC(C(=O)N(C)CC(=O)Nc2cccc(OC)c2)CC1 (stereo not given)"
  UNIT ANNOTATION: "%"
  cell number change: -0.846
- COMPOUND: "CC1=C(C(=O)NC2CCCc3c2cnn3-c2cc(F)cc(F)c2)OCCO1 (stereo not given)"
  UNIT ANNOTATION: "%"
  cell number change: 4.32
- COMPOUND: "CN(CC(=O)Nc1c(Cl)cccc1Cl)C(=O)c1ccncc1"
  UNIT ANNOTATION: "%"
  cell number change: 22.3
- COMPOUND: "CCOc1ccc2nc(N3C(=O)/C(=C/c4ccccc4)NC3=S)sc2c1"
  UNIT ANNOTATION: "%"
  cell number change: -2.65
- COMPOUND: "CCCCC1CCC(C(=O)N(C)CC(=O)Nc2cccc(F)c2)CC1 (stereo not given)"
  UNIT ANNOTATION: "%"
  cell number change: 20.8
- COMPOUND: "COCCNC(=O)c1ccc(CSCc2cccc(Cl)c2)o1"
  UNIT ANNOTATION: "%"
  cell number change: 7.62
- COMPOUND: "COc1ccc2nc(N3C(=O)/C(=C/c4ccc(Cl)cc4)NC3=S)sc2c1"
  UNIT ANNOTATION: "%"
  cell number change: 28.8

Record request: cell number change value, item COc1cccc(NC(=O)CN(C)C(=O)c2cn(-c3ccccc3)nc2-c2cccnc2)c1
-3.75

###

# ASSAY SUMMARY: qHTS Assay for Lipid Storage Modulators in Drosophila S3 Cells;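 for cell number change: cells counted by Cell Tracker Red CMTPX staining in the red channel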
# TEST CONDITIONS: BODIPY lipid droplet fluorescence, 18-24 h, cells fed with added oleic acid; measured here: cell count max response
The campaign covered roughly 320,000 compounds. About 2,100 (0.66%) were called active. Another 53% or so got no clear call; they are omitted. This is one part of a sample in which actives are shown more often than they occur.
# reported cell number change; entries follow
I only need the number, in %, no unit after it.

Check out these entries, answers already filled in.
- COMPOUND: "COc1ccc(NC(=O)CCN2CCCCC2)cc1"
  UNIT ANNOTATION: "%"
  REPORTED: -13.9
- COMPOUND: "O=C(CCN1CCN(CCO)CC1)Nc1ccc(Br)cc1"
  UNIT ANNOTATION: "%"
  REPORTED: 0.964
- COMPOUND: "COc1ccc(NC(=O)CCN2CCCCCC2)cc1"
  UNIT ANNOTATION: "%"
  REPORTED: -0.671
- COMPOUND: "CN1CCN(CCC(=O)Nc2ccc(F)c(F)c2)CC1"
  UNIT ANNOTATION: "%"
  REPORTED: -0.365
- COMPOUND: "Cc1cc(C(=O)N/N=C/c2ccc(Cl)c([N+](=O)[O-])c2)c(C)n1-c1ccc(F)cc1"
  UNIT ANNOTATION: "%"
  REPORTED: -1.33

Record request: cell number change value, item CS(=O)(=O)N1N=C(c2ccccc2)CC1c1cccs1 (stereo unspecified)
-4.84

Record request: cell number change value, item O=C(CCN1CCCC1)Nc1cccc(Br)c1
-0.144

Record request: cell number change value, item C/C(Cn1nnc([N+](=O)[O-])n1)=N\NC(=O)c1ccc(C)cc1
24.7

Record request: cell number change value, item O=C(CN1CCCCCC1)Nc1cccc(NC(=O)CN2CCCCCC2)c1
-11.3

Record request: cell number change value, item C/C=C\C=C\C(=O)Nc1cccc(C2=NOC3(C2)C[C@H](C(N)=O)N(C(=O)c2ccccc2C(=O)c2ccccc2)C3)c1 (stereo partly specified)
1.47

Record request: cell number change value, item O=C(CN1CCCCC1)Nc1cccc(Br)c1
-14.8
